Taken from ChEMBL document CHEMBL1150772.

assay: physchem; conditions: octanol/water
Description: Lipophilicity, log P of the compound
logP by entry:

Please review the following examples before continuing.
>  <chemicalSmiles>
CC1=C[C@@]2(C)C(=CC1=O)C=C[C@@H]1[C@@H]2CC[C@@]2(C)[C@H]1CC[C@]2(C)O

>  <logP>
4.01

$$$$
>  <chemicalSmiles>
C[C@]12CC[C@H]3[C@@H](CCC4=CC(=O)[C@H](F)C[C@@]43C)[C@@H]1CC[C@@H]2O

>  <logP>
3.86

$$$$
>  <chemicalSmiles>
COC[C@@H]1C[C@@]2(C)[C@@H](CC[C@@H]3[C@@H]2CC[C@]2(C)[C@@H](O)CC[C@@H]32)CC1=O

>  <logP>
3.77

$$$$

Query: Hello, please tell me recorded logP for this one: C[C@H]1C[C@@H]2[C@H](CC[C@]3(C)[C@@H](O)CC[C@@H]23)[C@@]2(C)CCC(=O)C[C@H]12
Reply: 4.26

Query: Report measured logP; entry is C[C@]12CCC(=O)C=C1CC[C@@H]1[C@@H]2C(=O)C[C@]2(C)C(=O)CC[C@@H]12
Reply: 3.75

Query: Tell me measured logP for C[C@]12CC[C@H]3[C@@H](CCC4=CC(=O)CC[C@@]43C)[C@@H]1CC[C@@H]2O please.
Reply: 2.53

Query: Quickly give me recorded logP for CC(=O)O[C@H]1CC[C@H]2[C@@H]3CCC4=CC(=O)CC[C@]4(C)[C@H]3CC[C@]12C
Reply: 4.2

---

This listing pairs compounds with measured logP.
assay: physchem; settings: octanol/water

The examples below pair each entry with its known result.
>  <compound>
C[C@]12CC[C@H]3[C@@H](CCC4=CC(=O)CC[C@@]43C)[C@@H]1CC[C@@H]2OC(=O)C(F)Cl (some centres not stated)

>  <logP>
4.7

$$$$
>  <compound>
C[C@]12C[C@H](O)[C@H]3[C@@H](CCC4=CC(=O)CC[C@@]43C)[C@@H]1CC[C@@H]2O

>  <logP>
2.85

$$$$
>  <compound>
C[C@@H]1C[C@@]2(C)[C@@H](CC[C@@H]3[C@@H]2CC[C@]2(C)[C@@H](O)CC[C@@H]32)CC1=O

>  <logP>
4.5

$$$$
>  <compound>
C[C@]12CCC(=O)C=C1CC[C@@H]1[C@@H]2CC[C@@]2(C)[C@H]1CC[C@]2(C)O

>  <logP>
3.91

$$$$

Query: Determine from records and report logP for C[C@H]1C[C@@H]2[C@H](CC[C@@]3(C)[C@H]2CC[C@]3(C)O)[C@@]2(C)CCC(=O)C=C12
Reply: 4.24

Query: Report measured logP; entry is C[C@@H]1C[C@]2(C)C3=CC[C@@]4(C)C(CC[C@]4(C)O)[C@@H]3CC[C@H]2CC1=O (some centres not stated)
Reply: 4.14

Query: Tell us which logP value is on record for C[C@]12CCC(=O)C=C1CC[C@@H]1[C@@H]2[C@@H](O)C[C@@]2(C)[C@H]1CC[C@]2(C)O
Reply: 2.93

---

test: physchem; settings: octanol/water
measurementType: logP

Some entries whose results are on file:
>  <chemicalSmiles>
C[C@]12C/C(=C\N)C(=O)C[C@@H]1CC[C@@H]1[C@@H]2CC[C@@]2(C)[C@H]1CC[C@]2(C)O

>  <logP>
2.8

$$$$
>  <chemicalSmiles>
C[C@]12C[C@H](O)CC[C@@H]1CC[C@@H]1[C@@H]2CC[C@@]2(C)[C@H]1CC[C@]2(C)O

>  <logP>
3.8

$$$$
>  <chemicalSmiles>
CC(=O)O[C@H]1CC[C@H]2[C@@H]3CCC4=C(Cl)C(=O)CC[C@]4(C)[C@H]3CC[C@]12C

>  <logP>
3.87

$$$$
>  <chemicalSmiles>
C[C@]12CC[C@@H](O)C[C@@H]1CC[C@@H]1[C@@H]2CC[C@]2(C)[C@@H](O)CC[C@@H]12

>  <logP>
5.49

$$$$
>  <chemicalSmiles>
C[C@]12CCC(=O)C[C@@H]1CC[C@H]1C3=CC[C@H](O)[C@@]3(C)CC[C@@H]12

>  <logP>
3.5

$$$$

Query: Supply measured logP of CCOC1(O[C@H]2CC[C@H]3[C@@H]4CC[C@H]5CC(=O)CC[C@]5(C)[C@H]4CC[C@]23C)CCCC1 in your reply.
Reply: 6.02

Query: Give logP for C[C@]12CCC(=O)C[C@@H]1CC[C@@H]1[C@@H]2CC[C@@]2(C)[C@H]1CC[C@]2(C)O
Reply: 4.01

Query: Supply logP value. Item: C[C@H]1C[C@@H]2[C@H](CC[C@@]3(C)[C@H]2CC[C@]3(C)O)[C@@]2(C)CCC(=O)C[C@H]12
Reply: 4.34

Query: Give recorded logP. C[C@]12CC/C(=N/NC(N)=O)C[C@@H]1CC[C@@H]1[C@@H]2CC[C@]2(C)[C@@H](O)CC[C@@H]12
Reply: 3.45

Query: Return logP (reported value) for this compound: CCCO[C@@]1(C)CC[C@H]2[C@@H]3CC[C@H]4CC(=O)[C@H](C)C[C@]4(C)[C@H]3CC[C@@]21C
Reply: 5.66

Query: Determine its reported logP: CCCO[C@@]1(C)CC[C@H]2[C@@H]3C[C@H](C)[C@H]4CC(=O)[C@H](C)C[C@]4(C)[C@H]3CC[C@@]21C
Reply: 5.99

Query: Consider the compound CC(=O)O[C@H]1CC[C@H]2[C@@H]3CCC4=C(O)C(=O)CC[C@]4(C)[C@H]3CC[C@]12C and give its recorded logP.
Reply: 3.06

---

test: physchem; conditions: octanol/water
logP values, listed per item
Answer with a number only.

Some molecules with recorded logP:
>  <chemicalSmiles>
C[C@@H]1CC2=CC(=O)CC[C@]2(C)[C@H]2CC[C@]3(C)C(=O)CC[C@H]3[C@H]12

>  <logP>
4.69

$$$$
>  <chemicalSmiles>
C[C@]12CC[C@H]3[C@@H](C[C@@H](F)C4=CC(=O)CC[C@@]43C)[C@@H]1CC[C@@H]2O

>  <logP>
3.53

$$$$

Query: Name the recorded logP of the item C[C@H]1C/C(=N\O)C[C@@H]2CC[C@@H]3[C@H](CC[C@@]4(C)[C@H]3CC[C@]4(C)O)[C@]21C in your answer.
Reply: 5

---

assay: physchem; conditions: octanol/water
measurementType: logP
API doc: respond with a numeric literal and nothing else, no unit.

Check out these entries, answers already filled in.
>  <chemicalSmiles>
C[C@]12C[C@H]3O[C@H]3C[C@@H]1CC[C@@H]1[C@@H]2CC[C@]2(C)[C@@H](O)CC[C@@H]12

>  <recordedResult>
3.5

$$$$
>  <chemicalSmiles>
C[C@]12C[C@@H]3O[C@@H]3C[C@@H]1CC[C@@H]1[C@@H]2CC[C@]2(C)[C@@H](O)CC[C@@H]12

>  <recordedResult>
4.5

$$$$
>  <chemicalSmiles>
CC(=O)O[C@H]1CC[C@H]2[C@@H]3CC[C@H]4C[C@H]5[C@@H](C[C@]4(C)[C@H]3CC[C@]12C)C5(F)F

>  <recordedResult>
4.77

$$$$
>  <chemicalSmiles>
C[C@]12C[C@@H]3[C@H](C[C@@H]1CC[C@@H]1[C@@H]2CC[C@@]2(C)[C@H]1CC[C@]2(C)O)C3(F)F

>  <recordedResult>
4.72

$$$$
>  <chemicalSmiles>
COC1(O[C@H]2CC[C@H]3[C@@H]4CC[C@H]5CC(=O)CC[C@]5(C)[C@H]4CC[C@]23C)CCCC1

>  <recordedResult>
5.68

$$$$

Query: Indicate its recorded logP; the compound in question is C[C@]12CC[C@H]3[C@@H](CCC4=CC(=O)CC[C@@]43C)[C@@H]1CC[C@@H]2OC(=O)C(Cl)Cl
Reply: 5.04

Query: Give the reported value of logP for this record: C[C@]12C[C@@H](F)C(=O)C[C@@H]1CC[C@@H]1[C@@H]2CC[C@]2(C)[C@@H](O)CC[C@@H]12
Reply: 3.96

---

experiment: physchem; conditions: octanol/water
Form field: logP (one value per entry).
No unit in the answer, please; the number alone is enough.

// solved cases for logP follow
>  <compound>
CC(=O)O[C@H]1CC[C@H]2[C@@H]3CCC4=C(Cl)C(=O)CC[C@]4(C)[C@H]3[C@@H](O)C[C@]12C

>  <recordedResult>
2.88

$$$$
>  <compound>
CN(C)CCN/C=C1\C[C@@]2(C)[C@@H](CC[C@@H]3[C@@H]2CC[C@@]2(C)[C@H]3CC[C@]2(C)O)CC1=O

>  <recordedResult>
2.53

$$$$
>  <compound>
CC(=O)O[C@H]1CC[C@H]2[C@@H]3CC[C@H]4C[C@@H]5[C@H](C[C@]4(C)[C@H]3CC[C@]12C)C5(F)F

>  <recordedResult>
4.77

$$$$
>  <compound>
C[C@@H]1CC2=CC(=O)CC[C@]2(C)[C@H]2CC[C@@]3(C)[C@@H](CC[C@]3(C)O)[C@H]12 [BOLASTERONE]

>  <recordedResult>
4.24

$$$$
>  <compound>
C[C@@H]1C[C@@H]2[C@H](CC[C@]3(C)[C@@H](O)CC[C@@H]23)[C@@]2(C)CCC(=O)C[C@H]12

>  <recordedResult>
4.26

$$$$

Query: // fetch logP given entry C[C@]12CC[C@H]3[C@@H](CCC4=CC(=O)CC[C@@]43C)[C@@H]1CC[C@@H]2O[Si](C)(C)C
Reply: 3.95

Query: Complete the entry with logP for C[C@@H]1CC2=CC(=O)CC[C@]2(C)[C@H]2CC[C@]3(C)[C@@H](O)CC[C@H]3[C@H]12
Reply: 4.17
